System: CCRF-CEM
MEASUREMENT PROTOCOL: Growth inhibition of human CCRF-CEM cells after 48 hrs by SRB staining method
Assay type: functional

{"COMPOUND": "COc1cc(Nc2nc3cc(N)cc(N)c3nc2-c2ccccc2)cc(OC)c1OC", "REL": "=", "GI50, nM": 4370}
{"COMPOUND": "CN(Cc1cnc2nc(N)nc(N)c2n1)c1ccc(C(=O)N[C@@H](CCC(=O)O)C(=O)O)cc1 [METHOTREXATE]", "REL": "=", "GI50, nM": 39.8}
{"COMPOUND": "CCOC(=O)CCC(NC(=O)c1ccc(Nc2nc3cc(N)cc(N)c3nc2-c2ccccc2)cc1)C(=O)OCC (stereo unspecified)", "REL": "=", "GI50, nM": 2950}
{"COMPOUND": "COc1ccc(Nc2nc3cc(N)cc(N)c3nc2-c2ccccc2)cc1", "REL": "=", "GI50, nM": 12000}
{"COMPOUND": "COc1cc(Nc2nc3cc(N)cc(N)c3nc2-c2ccccc2)cc(OC)c1", "REL": "<", "GI50, nM": 10}
{"COMPOUND": "Nc1cc(N)c2nc(-c3ccccc3)c(Nc3ccc(Cl)c(Cl)c3)nc2c1", "REL": "=", "GI50, nM": 1290}

====

List of TGI values.
MEASUREMENT PROTOCOL: Growth inhibition of human HS 578T cells after 48 hrs by SRB staining method
Format: functional
MEASUREMENT SETUP: read-out: pTGI (converted)
ENDPOINT NAME: TGI (µM)

{"COMPOUND": "COc1cc(Nc2nc3cc(N)cc(N)c3nc2-c2ccccc2)cc(OC)c1", "VALUE REPORTED": 63.1}
{"COMPOUND": "COc1ccc(Nc2nc3cc(N)cc(N)c3nc2-c2ccccc2)cc1OC", "VALUE REPORTED": 50.1}
{"COMPOUND": "Nc1cc(N)c2nc(-c3ccccc3)c(Nc3ccc(Cl)c(Cl)c3)nc2c1", "VALUE REPORTED": 51.3}
{"COMPOUND": "Nc1cc(N)c2nc(-c3ccccc3)c(Nc3ccc(F)cc3)nc2c1", "VALUE REPORTED": 58.9}
{"COMPOUND": "CCOC(=O)CCC(NC(=O)c1ccc(Nc2nc3cc(N)cc(N)c3nc2-c2ccccc2)cc1)C(=O)OCC (configuration not stated)", "VALUE REPORTED": 75.9}
{"COMPOUND": "COc1cc(Nc2nc3cc(N)cc(N)c3nc2-c2ccccc2)cc(OC)c1OC", "VALUE REPORTED": 77.6}
{"COMPOUND": "COc1ccc(Nc2nc3cc(N)cc(N)c3nc2-c2ccccc2)cc1", "VALUE REPORTED": 46.8}

====

List of log10 TGI values.
Tested on: M14
MEASUREMENT PROTOCOL: Growth inhibition of human M14 cells after 48 hrs by SRB staining method
Type: functional
MEASUREMENT SETUP: M14, 48 h, read-out: pTGI (converted)
ENDPOINT NAME: log10 TGI (log10 of the value in µM)

{"MOLECULE": "COc1cc(Nc2nc3cc(N)cc(N)c3nc2-c2ccccc2)cc(OC)c1OC", "VALUE REPORTED": 1.65}
{"MOLECULE": "CCOC(=O)CCC(NC(=O)c1ccc(Nc2nc3cc(N)cc(N)c3nc2-c2ccccc2)cc1)C(=O)OCC (configuration not stated)", "VALUE REPORTED": 0.77}
{"MOLECULE": "COc1ccc(Nc2nc3cc(N)cc(N)c3nc2-c2ccccc2)cc1", "VALUE REPORTED": 1.56}
{"MOLECULE": "Nc1cc(N)c2nc(-c3ccccc3)c(Nc3ccc(F)cc3)nc2c1", "VALUE REPORTED": 1.64}
{"MOLECULE": "COc1cc(Nc2nc3cc(N)cc(N)c3nc2-c2ccccc2)cc(OC)c1", "VALUE REPORTED": 1.54}
{"MOLECULE": "Nc1cc(N)c2nc(-c3ccccc3)c(Nc3ccc(Cl)c(Cl)c3)nc2c1", "VALUE REPORTED": 1.78}
{"MOLECULE": "COc1ccc(Nc2nc3cc(N)cc(N)c3nc2-c2ccccc2)cc1OC", "VALUE REPORTED": 1.84}
